Biological target: recombinant human GITR (Cat No. 13643-H08H, Lot No. LC12JA2509, Sino Biological) (human) (UniProt Q9Y5U5)
Test: SPR Biacore 8K, single-cycle kinetics, IgG in supernatant captured on Protein A, GITR as analyte
measured.quantity: koff (s⁻¹)

1) anti-GITR 51B VH4/VL1 humanized antibody (human IgG1, kappa) (antibody, V domains shown) VH: QVQLVQSGAEVKKPGASVKVSCKTTGYRFTGYWINWVRQPPGKGLEWIGEILPGSGATYYSENFKGKVTITADTSTDTAYMELSSLRSEDTAIYYCARKGGYYAMDYWGQGTLVTVSS VL: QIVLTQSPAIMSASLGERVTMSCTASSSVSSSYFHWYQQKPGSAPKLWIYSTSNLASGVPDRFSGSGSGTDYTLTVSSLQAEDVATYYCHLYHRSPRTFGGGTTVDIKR: 0.00066
2) anti-GITR 51B VH4/VL5 humanized antibody (human IgG1, kappa) (antibody, V domains shown) VH: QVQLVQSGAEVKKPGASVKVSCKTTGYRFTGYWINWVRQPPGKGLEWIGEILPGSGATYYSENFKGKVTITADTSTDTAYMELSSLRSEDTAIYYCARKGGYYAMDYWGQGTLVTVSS VL: EIVLTQSPATLSLSPGERATLSCTASSSVSSSYFHWYQQKPGKAPKLWIYSTSNLESGVPDRFSGSGSGTDYTLTISSLQAEDVATYYCHLYHRSPRTFGGGTKVEIKR: 0.000599
3) anti-GITR 51B VH2/VL5 humanized antibody (human IgG1, kappa) (antibody, V domains shown) VH: QVQLVQSGAEVKKPGASVKLSCKTTGYRFTGYWIEWVRQPPGKGLEWIGEILPGSGATYYSENFKGKATITADTSTNTAYMEVSSLRSEDTAIYYCARKGGYYAMDYWGQGTLVTVSS VL: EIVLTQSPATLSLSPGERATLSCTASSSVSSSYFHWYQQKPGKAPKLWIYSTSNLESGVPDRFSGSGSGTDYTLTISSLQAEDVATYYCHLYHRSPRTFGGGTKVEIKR: 0.000635
4) anti-GITR 51B VH4/VL4 humanized antibody (human IgG1, kappa) (antibody, V domains shown) VH: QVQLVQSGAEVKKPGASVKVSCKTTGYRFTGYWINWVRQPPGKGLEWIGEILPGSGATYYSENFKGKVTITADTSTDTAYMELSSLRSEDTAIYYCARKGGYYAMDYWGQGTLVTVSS VL: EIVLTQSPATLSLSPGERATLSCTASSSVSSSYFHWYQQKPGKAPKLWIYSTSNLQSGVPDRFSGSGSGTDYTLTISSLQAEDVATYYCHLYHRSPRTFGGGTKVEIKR: 0.00053
5) anti-GITR 51B VH1/VL1 humanized antibody (human IgG1, kappa) (antibody, V domains shown) VH: QVQLVQSGAELKKPGASVKLSCKTTGYRFTGYWIEWVRQPPGKGLEWIGEILPGSGATYYSENFKGKATITADTSTNTAYMEVSSLRSGDSAIYYCARKGGYYAMDYWGQGTSVTVSS VL: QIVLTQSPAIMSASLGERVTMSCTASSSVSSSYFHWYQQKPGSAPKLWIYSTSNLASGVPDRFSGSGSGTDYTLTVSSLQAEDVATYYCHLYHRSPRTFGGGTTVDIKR: 0.000949
6) anti-GITR 51B VH1/VL4 humanized antibody (human IgG1, kappa) (antibody, V domains shown) VH: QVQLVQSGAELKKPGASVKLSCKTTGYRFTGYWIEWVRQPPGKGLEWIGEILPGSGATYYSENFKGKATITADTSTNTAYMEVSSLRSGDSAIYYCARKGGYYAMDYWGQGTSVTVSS VL: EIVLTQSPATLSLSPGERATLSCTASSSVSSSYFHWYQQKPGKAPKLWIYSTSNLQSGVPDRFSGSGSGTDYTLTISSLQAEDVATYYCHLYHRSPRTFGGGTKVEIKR: 0.000616
7) anti-GITR 51B VH2/VL1 humanized antibody (human IgG1, kappa) (antibody, V domains shown) VH: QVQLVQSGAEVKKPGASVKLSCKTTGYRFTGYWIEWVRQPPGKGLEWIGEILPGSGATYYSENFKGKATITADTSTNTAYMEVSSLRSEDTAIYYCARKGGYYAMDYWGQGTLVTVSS VL: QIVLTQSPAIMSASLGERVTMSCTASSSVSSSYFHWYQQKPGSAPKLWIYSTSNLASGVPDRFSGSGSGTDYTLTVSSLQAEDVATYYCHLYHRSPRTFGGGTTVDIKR: 0.000734
8) anti-GITR 51B VH1/VL5 humanized antibody (human IgG1, kappa) (antibody, V domains shown) VH: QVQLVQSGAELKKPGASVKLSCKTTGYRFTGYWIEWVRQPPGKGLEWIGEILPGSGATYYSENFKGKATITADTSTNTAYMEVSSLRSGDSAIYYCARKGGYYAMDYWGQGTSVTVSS VL: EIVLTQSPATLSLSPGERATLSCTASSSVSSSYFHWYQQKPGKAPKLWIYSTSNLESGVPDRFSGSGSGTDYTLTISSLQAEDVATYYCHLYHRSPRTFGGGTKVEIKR: 0.000628
9) anti-GITR 51B VH1/VL0 antibody (human IgG1, kappa) (antibody, V domains shown) VH: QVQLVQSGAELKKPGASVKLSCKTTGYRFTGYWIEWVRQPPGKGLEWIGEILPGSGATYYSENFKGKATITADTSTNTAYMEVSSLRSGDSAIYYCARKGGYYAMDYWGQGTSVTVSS VL: QIVLTQSPAIMSASLGERVTMTCTASSSVSSSYFHWYQQKPGSSPKLWIYSTSNLASGVPARFSGSGSGTSYSLTVSSLEAEDAATYYCHLYHRSPRTFGGGTTLDIKR: 0.000654
10) anti-GITR 51B VH5/VL1 humanized antibody (human IgG1, kappa) (antibody, V domains shown) VH: QVQLVQSGAEVKKPGASVKVSCKTTGYRFTGYWIDWVRQPPGKGLEWIGEILPGSGATYYSENFKGKVTITADTSTDTAYMELSSLRSEDTAIYYCARKGGYYAMDYWGQGTLVTVSS VL: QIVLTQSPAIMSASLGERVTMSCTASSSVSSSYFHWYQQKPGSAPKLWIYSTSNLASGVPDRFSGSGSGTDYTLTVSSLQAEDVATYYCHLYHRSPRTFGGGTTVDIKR: 0.000742
